- target: Pig IR (pig, UniProt F1SCL0 28-1382)
- experiment-summary: cell-based or functional assay

binder	Pig IR phosphorylation [EC 50 nM] mean (nM)
scl-Fc fusion protein INS009 (Fc fusion) SFVNQHLCGSHLVEALELVCGERGFHYTPKTGSYPGGVGIVEQCCTSICSLEQLENYCGGEAEDLQVGQVELGGGPGAGSLQPEGSLQGGPSVFLFPPKPKDTLMISRTPEVTCVVVDVSHEDPEVKFNWYVDGVEVHNAKTKPREEQYNSTYRVVSVLTVLHQDWLNGKEYKCKVSNKALPAPIEKTISKAKGQPREPQVYTLPPSRDELTKNQVSLTCLVKGFYPSDIAVEWESNGQPENNYKTTPPVLDSDGSFFLYSKLTVDKSRWQQGNVFSCSVMHEALHNHYTQKSLSLSPGGGGGSAESKYGPPCPPCPA	36.6
scl-Fc fusion protein INS002 (Fc fusion) FVNQHLCGSHLVEALYLVCGERGFFYTDKTEEYPGDVGIVEQCCTSICSLEQLENYCGGEAEDLQVGQVELGGGPGAGSLQPLALEGSLQGGPSVFLFPPKPKDTLMISRTPEVTCVVVDVSHEDPEVKFNWYVDGVEVHNAKTKPREEQYNSTYRVVSVLTVLHQDWLNGKEYKCKVSNKALPAPIEKTISKAKGQPREPQVYTLPPSRDELTKNQVSLTCLVKGFYPSDIAVEWESNGQPENNYKTTPPVLDSDGSFFLYSKLTVDKSRWQQGNVFSCSVMHEALHNHYTQKSLSLSPGGGGGSAESKYGPPCPPCPA	8.12
scl-Fc fusion protein INS021 (Fc fusion) SFVNQHLCGSHLVEALELVCGERGFHYTPKTEEYPGDVGIVEQCCTSICSLSQLENYCGGEAEDLQVGQVELGGGPGAGSLQLALEGSLQGGPSVFLFPPKPKDTLMISRTPEVTCVVVDVSHEDPEVKFNWYVDGVEVHNAKTKPREEQYNSTYRVVSVLTVLHQDWLNGKEYKCKVSNKALPAPIEKTISKAKGQPREPQVYTLPPSRDELTKNQVSLTCLVKGFYPSDIAVEWESNGQPENNYKTTPPVLDSDGSFFLYSKLTVDKSRWQQGNVFSCSVMHEALHNHYTQKSLSLSPGGGGGSAESKYGPPCPPCPA	56.7
scl-Fc fusion protein INS020 (Fc fusion) FVNQHLCGSHLVEALELVCGERGFHYTPKTEEYPGDVGIVEQCCTSICSLSQLENYCGGEAEDLQVGQVELGGGPGAGSLQPEGSLQGGPSVFLFPPKPKDTLMISRTPEVTCVVVDVSHEDPEVKFNWYVDGVEVHNAKTKPREEQYNSTYRVVSVLTVLHQDWLNGKEYKCKVSNKALPAPIEKTISKAKGQPREPQVYTLPPSRDELTKNQVSLTCLVKGFYPSDIAVEWESNGQPENNYKTTPPVLDSDGSFFLYSKLTVDKSRWQQGNVFSCSVMHEALHNHYTQKSLSLSPGGGGGSAESKYGPPCPPCPA	157
